# Tested on: human umbilical vein endothelial cells (HUVEC)
# protocol_details: HUVEC proliferation assay
# Format: cell-based
# experimental_parameters: Homo sapiens, HUVEC, Table 3
quantity_kind: IC50

Here is how some compounds turned out for IC50.
{"columns": ["compound", "target_of_assay", "IC50"],
 "data": [
  ["COc1cccc(C(=O)Nc2ccc(C)c(-c3noc(-c4sc(NC(C)C)nc4N)n3)c2)c1 [B(22)]", "human umbilical vein endothelial cells (HUVEC)", "> 1000 nM"],
  ["Cc1cccc(C(=O)Nc2cccc(-c3noc(-c4sc(NC(=O)Nc5ccccc5)nc4N)n3)c2)c1 [F(12)]", "human umbilical vein endothelial cells (HUVEC)", "> 300 nM"],
  ["COc1cc(Nc2nc(N)c(-c3nc(-c4cccc(NC(=O)c5cc(C)c(O)c(C)c5)c4)cs3)s2)cc(OC)c1OC [D(58)]", "human umbilical vein endothelial cells (HUVEC)", "> 100 nM"],
  ["COc1cc(Nc2nc(N)c(-c3nc(-c4cccc(NC(=O)c5cccc(C#N)c5)c4)no3)s2)cc(OC)c1OC [D(68)]", "human umbilical vein endothelial cells (HUVEC)", "> 100 nM"],
  ["COc1cc(Nc2nc(N)c(-c3nc(-c4cccc(NC(=O)c5ccc(CN6CCOCC6)cc5)c4)no3)s2)cc(OC)c1OC [D(76)]", "human umbilical vein endothelial cells (HUVEC)", "> 1000 nM"]
]}

Problem: Report measured IC50; entry is COc1cc(Nc2nc(N)c(-c3nc(-c4cccc(-c5nc(C(C)C)n[nH]5)c4)no3)s2)cc(OC)c1OC [B(38)]
Result: > 700 nM

Problem: Report measured IC50; entry is COc1cc(Nc2nc(N)c(-c3nc(-c4cccc(-c5nc(C)n[nH]5)c4)no3)s2)cc(OC)c1OC [B(37)]
Result: > 1000 nM

---

# target_of_assay: CDK2/Cyclin A complex (Homo sapiens)
# protocol_details: CDK2/Cyclin A assay
# Assay type: biochemical
# experimental_parameters: 1.0 μM; combinatorial library compounds
quantity_kind: inhibition at 1 µM (%)
A number alone suffices; assume %.

Here is how some compounds turned out for inhibition at 1 µM.
{"columns": ["compound", "measured_number"],
 "data": [
  ["CC(C)c1ccc(Nc2nc(N)c(-c3nc(-c4ccc[nH]4)cs3)s2)cc1", 19],
  ["COc1ccc(-c2csc(-c3sc(Nc4ccc(N(C)C)cc4)nc3N)n2)c(OC)c1", 6.7],
  ["CC(C)c1ccc(Nc2nc(N)c(-c3nc(-c4ccc5ccccc5c4)cs3)s2)cc1", 17.2],
  ["Cc1cc(-c2csc(-c3sc(Nc4ccc(C(C)C)cc4)nc3N)n2)ccc1Cl", 11.7],
  ["Cc1ccc(-c2csc(-c3sc(Nc4ccc(S(N)(=O)=O)cc4)nc3N)n2)cc1 [drawing 395]", 20.5],
  ["Nc1nc(Nc2ccc(S(N)(=O)=O)cc2)sc1-c1nc(-c2ccccc2[N+](=O)[O-])cs1", 55.4],
  ["CC(C)c1ccc(Nc2nc(N)c(-c3nc(-c4ccc5c(c4)C(C)(C)CCC5(C)C)cs3)s2)cc1", 5.2],
  ["Nc1nc(Nc2ccc(S(N)(=O)=O)cc2)sc1-c1nc(-c2ccc([N+](=O)[O-])cc2)cs1", 27.7],
  ["CC(C)c1ccc(Nc2nc(N)c(-c3nc(-c4ccc(Cl)cc4)cs3)s2)cc1", 10.8]
]}

Problem: Report measured inhibition at 1 µM; entry is Nc1nc(Nc2ccc(S(N)(=O)=O)cc2)sc1-c1nc(-c2ccc3c(c2)CCC(=O)N3)cs1
Result: 56.6

---

# target_of_assay: FGF-R1 (Homo sapiens, UniProt P11362, C488A/C584S/L457V)
# Construct: starting from the endogenous methionine residue 456 to glutamate 766; made in house; host or cells: baculovirus vector expression system
# Sequence (P11362 456-766 L457V/C488A/C584S): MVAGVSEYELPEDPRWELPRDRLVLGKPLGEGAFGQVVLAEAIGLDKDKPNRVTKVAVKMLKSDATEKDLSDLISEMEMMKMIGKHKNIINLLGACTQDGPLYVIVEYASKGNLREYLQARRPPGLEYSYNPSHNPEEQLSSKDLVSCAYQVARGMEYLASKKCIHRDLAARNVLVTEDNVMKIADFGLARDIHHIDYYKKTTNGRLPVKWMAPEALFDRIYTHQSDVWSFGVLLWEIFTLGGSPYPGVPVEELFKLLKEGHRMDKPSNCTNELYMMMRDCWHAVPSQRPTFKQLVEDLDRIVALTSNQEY
# protocol_details: FGF-R spectrophotometric assay
# Assay type: biochemical
# experimental_parameters: Table 3; % inh @ 1 uM; read-out: FGF-P Ki (nM) (% inh @ 1 uM)
Some compounds, each annotated with its measured inhibition at 1 µM.
Provide a numeric answer, followed by its unit.

Problem: Report measured inhibition at 1 µM; entry is COc1cccc(C(=O)Nc2ccc(F)c(-c3noc(-c4sc(Nc5cc(OC)c(OC)c(OC)c5)nc4N)n3)c2)c1
Result: 49%

Problem: Report measured inhibition at 1 µM; entry is COc1cccc(C(=O)Nc2cc(-c3noc(-c4sc(Nc5ccc(N6CCOCC6)nc5)nc4N)n3)c(F)cc2F)c1
Result: 8%

Problem: Report measured inhibition at 1 µM; entry is CNC(=O)Nc1nc(N)c(-c2nc(-c3cccc(NC(=O)c4cccc(OC)c4)c3)cs2)s1
Result: 25%

Problem: Report measured inhibition at 1 µM; entry is COc1cc(Nc2nc(N)c(-c3nc(-c4cc(NC(=O)c5cccc(Cl)c5)ccc4F)no3)s2)cc(OC)c1OC
Result: 56%

Problem: Report measured inhibition at 1 µM; entry is COc1cccc(C(=O)Nc2cc(-c3csc(-c4sc(NC(=O)NCCCN5CCCC5=O)nc4N)n3)c(F)cc2F)c1
Result: 28%

Problem: Report measured inhibition at 1 µM; entry is COc1cccc(C(=O)Nc2ccc(C)c(-c3noc(-c4sc(Nc5cc(OC)c(OC)c(OC)c5)nc4N)n3)c2)c1
Result: 61%

---

Some compounds, each annotated with its measured log10(Ki).
# target_of_assay: unphosphorylated VEGF-R2Δ50 (FLVK) (Homo sapiens, UniProt P35968, DEL940-989/E990V)
# Construct: VEGF-R2Δ50 contains residues 806-939 and 990-1171; made in house; host or cells: baculovirus/insect cells
# Sequence (P35968 with tags, fused parts or gaps DEL940-989/E990V limits assumed): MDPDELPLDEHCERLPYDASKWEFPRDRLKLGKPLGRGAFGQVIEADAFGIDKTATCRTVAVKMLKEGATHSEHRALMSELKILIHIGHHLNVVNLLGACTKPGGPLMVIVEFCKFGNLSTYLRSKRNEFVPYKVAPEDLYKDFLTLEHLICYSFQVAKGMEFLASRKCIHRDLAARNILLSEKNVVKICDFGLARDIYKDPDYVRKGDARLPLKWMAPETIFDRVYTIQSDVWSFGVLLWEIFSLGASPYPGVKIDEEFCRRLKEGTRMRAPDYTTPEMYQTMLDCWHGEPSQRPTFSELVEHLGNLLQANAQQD
# protocol_details: VEGF-R2 coupled spectrophotometric assay, unphosphorylated enzyme (FLVK)
# Type: biochemical
# experimental_parameters: Table 3; some entries 'Slow binder'
log10 Ki, nM

{"columns": ["smiles_record", "measured_number"],
 "data": [
  ["CCn1nc(C)cc1C(=O)Nc1ccc(C)c(-c2noc(-c3sc(Nc4ccc(CO)cc4)nc3N)n2)c1", -1.07]
]}

Problem: Report measured log10(Ki); entry is COc1cc(Nc2nc(N)c(-c3nc(-c4cccc(-c5nc(CC(C)C)n[nH]5)c4)no3)s2)cc(OC)c1OC
Result: 0.80

Problem: Report measured log10(Ki); entry is COc1cccc(C(=O)Nc2cc(-c3csc(-c4sc(NC(=O)NCCCN5CCCC5=O)nc4N)n3)c(F)cc2F)c1
Result: -0.30

Problem: Report measured log10(Ki); entry is COc1cc(Nc2nc(N)c(-c3nc(-c4cc(NC(=O)OC(C)(C)C)c(F)cc4Cl)no3)s2)cc(OC)c1OC
Result: -0.12

Problem: Report measured log10(Ki); entry is COc1cc(Nc2nc(N)c(-c3nc(-c4cc(NC(=O)OC(C)(C)C)ccc4C)no3)s2)cc(OC)c1OC
Result: -0.21

Problem: Report measured log10(Ki); entry is CCn1nc(C)cc1C(=O)Nc1ccc(C)c(-c2noc(-c3sc(Nc4ccccc4)nc3N)n2)c1
Result: 0.45

Problem: Report measured log10(Ki); entry is Cc1ccc(NC(=O)OC(C)(C)C)cc1-c1noc(-c2sc(Nc3ccc4nc[nH]c4c3)nc2N)n1
Result: 0.32

Problem: Report measured log10(Ki); entry is Cc1cccc(C(=O)Nc2cccc(-c3noc(-c4sc(NC(=O)Nc5ccccc5)nc4N)n3)c2)c1
Result: 0.34

---

# target_of_assay: FL-CHK1 (Homo sapiens)
# Construct: C-terminally His-tagged full-length human CHK1 (FL-CHK1); 6xHis (C); made in house; host or cells: baculovirus/insect cells
# Sequence (O14757 whole entry): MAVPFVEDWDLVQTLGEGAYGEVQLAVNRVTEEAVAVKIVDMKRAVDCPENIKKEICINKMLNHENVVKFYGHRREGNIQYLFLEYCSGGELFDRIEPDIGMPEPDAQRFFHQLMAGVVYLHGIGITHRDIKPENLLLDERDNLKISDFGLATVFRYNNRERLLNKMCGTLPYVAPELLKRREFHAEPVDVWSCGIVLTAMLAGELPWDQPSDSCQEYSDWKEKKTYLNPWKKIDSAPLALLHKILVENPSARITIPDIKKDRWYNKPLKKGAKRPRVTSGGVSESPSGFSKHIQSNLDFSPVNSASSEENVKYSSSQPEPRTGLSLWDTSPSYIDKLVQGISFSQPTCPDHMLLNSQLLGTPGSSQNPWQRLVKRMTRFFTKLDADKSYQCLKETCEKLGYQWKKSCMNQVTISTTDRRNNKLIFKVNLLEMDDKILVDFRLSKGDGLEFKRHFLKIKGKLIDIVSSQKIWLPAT
# protocol_details: CHK1 assay
# Assay type: biochemical
# Design: unit not given here
# experimental_parameters: Table A combinatorial examples; footnote b not given
Some compounds, each annotated with its measured CHK1^b.
// no unit, no text: just the number

Here is how some compounds turned out for CHK1^b.
{"columns": ["compound", "target_of_assay", "quantity_kind", "measured_number"],
 "data": [
  ["COc1cc(Nc2nc(N)c(-c3nc(-c4c(Cl)c(Cl)nc(Cl)c4Cl)cs3)s2)cc(OC)c1OC", "FL-CHK1 (Homo sapiens)", "CHK1^b", 48.8],
  ["COc1cc(Nc2nc(N)c(-c3nc(-c4ccc(-c5ccccc5)cc4)cs3)s2)cc(OC)c1OC", "FL-CHK1 (Homo sapiens)", "CHK1^b", 18.7],
  ["COc1cc(Nc2nc(N)c(-c3nc(-c4ccc(-c5ccc(Cl)cc5Cl)o4)cs3)s2)cc(OC)c1OC", "FL-CHK1 (Homo sapiens)", "CHK1^b", 23],
  ["COc1cc(Nc2nc(N)c(-c3nc(-c4sc5ccccc5c4C)cs3)s2)cc2c1OCCO2", "FL-CHK1 (Homo sapiens)", "CHK1^b", 4.7]
]}

Problem: Report measured CHK1^b; entry is COc1cc(Nc2nc(N)c(-c3nc(-c4ccccc4OC(=O)c4ccccc4)cs3)s2)cc(OC)c1OC
Result: 0.5

Problem: Report measured CHK1^b; entry is COc1cc(Nc2nc(N)c(-c3nc(-c4cc(C(=O)C(Cl)(Cl)Cl)n(C)c4)cs3)s2)cc(OC)c1OC
Result: 6.4

Problem: Report measured CHK1^b; entry is COc1cc(Nc2nc(N)c(-c3nc(-c4cccc(OC(=O)c5ccccc5)c4)cs3)s2)cc(OC)c1OC
Result: 23.9

Problem: Report measured CHK1^b; entry is COc1cc(Nc2nc(N)c(-c3nc(-c4ccc(OC(=O)c5ccccc5)cc4)cs3)s2)cc(OC)c1OC
Result: 22.3

Problem: Report measured CHK1^b; entry is COc1cc(Nc2nc(N)c(-c3nc(-c4c(-c5ccccc5)noc4C)cs3)s2)cc(OC)c1OC
Result: 17.9

Entry source: patent US6620828B2
